Measured values drawn from patent US20240024426A1 for this set.

Attribute: In vitro activity compared with native peptide (%) vs. GIP
Target: T1, human GIP receptor (human, UniProt P48546 22-466)
T1 sequence (looked up): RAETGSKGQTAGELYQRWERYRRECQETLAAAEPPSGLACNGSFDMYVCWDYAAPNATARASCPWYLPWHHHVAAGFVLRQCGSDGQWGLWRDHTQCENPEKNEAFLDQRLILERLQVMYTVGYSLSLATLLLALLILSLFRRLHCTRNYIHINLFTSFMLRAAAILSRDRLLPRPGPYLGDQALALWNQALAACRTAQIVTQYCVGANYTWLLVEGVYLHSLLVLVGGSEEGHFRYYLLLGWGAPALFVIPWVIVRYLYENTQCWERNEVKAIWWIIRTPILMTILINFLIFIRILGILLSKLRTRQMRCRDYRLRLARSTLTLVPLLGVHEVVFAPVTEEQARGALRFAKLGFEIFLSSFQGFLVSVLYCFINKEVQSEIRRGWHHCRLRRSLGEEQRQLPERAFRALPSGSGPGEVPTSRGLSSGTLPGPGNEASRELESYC
Experiment: cell-based or functional assay
Bridges are numbered along the chain shown (N, C = ends). Where no end group is shown, it is not given here. [ ]: non-standard residue; d: D form. Aib = CC(C)(N)C(=O)O
API: value field is a number in %; no unit string.

Examples from the recorded data:
binder	unitLabel	observedResult
Y[Aib]QGTFTSDCSKYLDERAAKDFVQWLLDHHPSSGQPPPS (bridge 16-20) [Triple agonist of SEQ ID NO: 72]	%	1.6
H[Aib]EGTFTSDYSIAMDEIHQKDFVDWLLAEKC (bridge 16-20) [Triple agonist of SEQ ID NO: 80]	%	0.1
H[Aib]QGTFTSDYSIAMDEIHQKDFVNWLLNTKC (bridge 16-20) [Triple agonist of SEQ ID NO: 35]	%	1.3
Y[Aib]QGTFTSDYSKYLDEKRAKEFVQWLLDHHPSSGQPPPSC (bridge 16-20) [Triple agonist of SEQ ID NO: 42]	%	7.8

Query string: State, in one line, measured In vitro activity compared with native peptide (%) vs. GIP of H[Aib]QGTFTSDYSKYLDEKRQKEFVNWLLAQKC (bridge 16-20) [Triple agonist of SEQ ID NO: 34]
Result string: 0.6

Query string: Provide one value: measured In vitro activity compared with native peptide (%) vs. GIP of H[Aib]QGTFTSDYSIAMDEIHQKDFVNWLLNTC (bridge 16-20) [Triple agonist of SEQ ID NO: 57]
Result string: 0.3
